MEASURED ON: Cytochrome P450 1A2 (Homo sapiens)
PROTOCOL SUMMARY: Cytochrome panel assay with activity outcomes
ASSAY CONTEXT: recombinant CYP, pro-luciferin dealkylation, luminescence, p450-cyp1a2; series mostly up to 57.1 µM
Screen size: about 16,000 compounds; about 5,700 (36%) were called active. Another 24% or so got no clear call; they are omitted. Calls come from the whole dose curve; as a rule, active = well fitted curve in the direction sought with a large enough effect; inconclusive = small, poorly fitted or top-dose-only effect, or effect the other way; inactive = no such curve, though single readings can be large or run the other way. The list shows a part of the results.
Answer with one of the outcomes Y (active), N (inactive)

MOLECULE	CATEGORY
O=C(CCNC(=O)Cn1ccc2ccccc2c1=O)NCCCN1CCN(c2ccc(F)cc2)CC1	N
CCCn1c(=O)c2[nH]c(-c3ccc(OCC(=O)NCCN)cc3)nc2n(CCC)c1=O	N
Cc1ccc(NC(=O)CSCC(=O)Nc2ccc(N3CCOCC3)c(Cl)c2)cc1	N
CCOC(=O)c1cccc2c1-c1ccccc1/C2=N/O	Y
O=C1c2ccccc2C(=O)N1CC(=O)N1c2ccccc2CCc2ccccc21	N
CN1CCN(/C=N/C2=C(C#N)C(c3ccccc3)C3=C(CC(C)(C)CC3=O)O2)CC1 (stereo not drawn)	N

Next molecule, please.
Give the logged outcome of this assay for the following molecule: `Cc1ccccc1-c1cncnc1NCc1ccccc1`
Y

====

MEASURED ON: Cytochrome P450 1A2 (Homo sapiens)
PROTOCOL SUMMARY: Cytochrome panel assay with activity outcomes
ASSAY CONTEXT: recombinant CYP, pro-luciferin dealkylation, luminescence, p450-cyp1a2; series mostly up to 57.1 µM
Screen size: about 16,000 compounds; about 5,700 (36%) were called active. Roughly 24% stayed inconclusive and do not appear here. The list shows a part of the results.
ATTRIBUTE MEASURED: AC50

COMPOUND	AC50
Cc1ccc2c(c1)N(CCC(=O)NCc1ccc3c(c1)OCO3)C(=O)CO2	15.8 µM (active)
Cc1ccc(NCCC(=O)c2ccc(Cl)c(Cl)c2)cc1	1.26 µM (active)
COc1cc2nc3c(c([Si](C)(C)C(C)(C)C)c2cc1OC)Cn1c-3cccc1=O	5.01 µM (active)
CC(C)Nc1nc(Oc2ccc(Cl)cc2)cc(C(F)(F)F)n1	2 µM (active)
O=C(c1cnccn1)N1CCC2(CCCN(c3cccc(-c4ccccc4)c3)C2)CC1	20 µM (active)
COc1cccc(-c2nc(NCc3cccs3)c3ccccc3n2)c1	0.316 µM (active)
COc1ccc(-n2c(=O)[nH]cc(C(=O)Nc3ccc4c(c3)OCCO4)c2=O)cc1	inactive
Cc1ccc(NC(=O)CCC(=O)c2ccc(F)cc2)cc1Cl	6.31 µM (active)
COc1cccc(C2=NOC(C(=O)Nc3cccnc3)C2)c1 (centres undefined)	10 µM (active)
CC(C)(C)[Si](C)(C)c1c2c(nc3ccc(OCc4ccccc4)cc13)-c1cccc(=O)n1C2	5.01 µM (active)

Annotate the compound `CS(=O)(=O)N1CCC2(CC1)CN(c1cccc(-c3ccccc3)c1)C2` with its measured AC50.
5.01 µM (active)

Annotate the compound `O=C(Nc1cccc(F)c1)N1CC2(CCN(C(=O)c3cnccn3)CC2)C1` with its measured AC50.
inactive

Annotate the compound `CC(=O)OCC1=C(C(=O)O)N2C(=O)[C@@H](NC(=O)Cc3cccs3)[C@@H]2SC1` with its measured AC50.
inactive

Annotate the compound Cc1ccc2c(c1)N(CC(=O)NC1CCCc3ccccc31)C(=O)CO2 (centres undefined) with its measured AC50.
inactive

Annotate the compound `COc1cccc(-c2nc(NCc3ccccc3OC)c3ccccc3n2)c1` with its measured AC50.
0.631 µM (active)

Annotate the compound `CCOc1nc(N=C(N)N)nc2c(C)cccc12` with its measured AC50.
0.178 µM (active)
